Hello, the source for this data is the supplement of paper PMC7125110, in case you need it.

B1: glmS ribozyme (parent)
chain: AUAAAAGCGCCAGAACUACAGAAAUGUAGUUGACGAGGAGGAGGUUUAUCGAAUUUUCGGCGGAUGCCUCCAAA

- Variants of: B1
- PROTOCOL_NOTES: self-cleavage kobs at 640 uM GlcN6P; higher = faster cleavage; RNA array
- CONDITION_DETAILS: with glucosamine-6-phosphate
This sample holds only a part of the variants without activity.
RESULT_TYPE: self-cleavage kobs at 640 uM GlcN6P

Completed entries (count: 5):
INSERT INTO measurements (var, experimental_result) VALUES
  ('G35A A36C C61G A64G', '< 1e-05 s⁻¹'),
  ('A39U G40A C67A', '0.000124 s⁻¹'),
  ('G40U C50A G51A', '< 1e-05 s⁻¹'),
  ('G40C C71U', '0.00124 s⁻¹'),
  ('A15U U56G', '0.00143 s⁻¹');

In: Look up self-cleavage kobs at 640 uM GlcN6P for this variant: C11U G41C U54G G59C
Out: < 1e-05 s⁻¹

In: Look up self-cleavage kobs at 640 uM GlcN6P for this variant: C8G C10A
Out: < 1e-05 s⁻¹

In: Look up self-cleavage kobs at 640 uM GlcN6P for this variant: A14G G29C G40A C58U
Out: < 1e-05 s⁻¹

In: Look up self-cleavage kobs at 640 uM GlcN6P for this variant: U31A A33U G44U U69C
Out: < 1e-05 s⁻¹

In: Look up self-cleavage kobs at 640 uM GlcN6P for this variant: A12C G29U
Out: 0.00225 s⁻¹

In: Look up self-cleavage kobs at 640 uM GlcN6P for this variant: A12C A14G C34G G38U U49G A64G
Out: < 1e-05 s⁻¹

In: Look up self-cleavage kobs at 640 uM GlcN6P for this variant: G13U U56C A64G
Out: < 1e-05 s⁻¹

In: Look up self-cleavage kobs at 640 uM GlcN6P for this variant: C34A G38U
Out: < 1e-05 s⁻¹

In: Look up self-cleavage kobs at 640 uM GlcN6P for this variant: C10U A39U
Out: < 1e-05 s⁻¹
